Experiment: Compound was tested for protein binding in human plasma
Type: ADME, cell-free
Settings: read-out: Protein binding (converted)
quantity-name: fraction unbound

entry-smiles	quantity-name	meas-value
C[C@@]1(C(=O)N[C@@H](Cc2ccc(-c3ccccc3C#N)cc2)C(=O)O)CCCN1S(=O)(=O)c1cc(Cl)cc(Cl)c1	fraction unbound	0.005
O=C(O)[C@H](Cc1ccc2ccccc2c1)NC(=O)[C@@H]1CCCN1S(=O)(=O)c1cc(Cl)cc(Cl)c1	fraction unbound	0.004

* * *

Target: Integrin alpha-4/beta-1 (Homo sapiens, UniProt P05556+P13612)
Sequence (P05556 whole entry): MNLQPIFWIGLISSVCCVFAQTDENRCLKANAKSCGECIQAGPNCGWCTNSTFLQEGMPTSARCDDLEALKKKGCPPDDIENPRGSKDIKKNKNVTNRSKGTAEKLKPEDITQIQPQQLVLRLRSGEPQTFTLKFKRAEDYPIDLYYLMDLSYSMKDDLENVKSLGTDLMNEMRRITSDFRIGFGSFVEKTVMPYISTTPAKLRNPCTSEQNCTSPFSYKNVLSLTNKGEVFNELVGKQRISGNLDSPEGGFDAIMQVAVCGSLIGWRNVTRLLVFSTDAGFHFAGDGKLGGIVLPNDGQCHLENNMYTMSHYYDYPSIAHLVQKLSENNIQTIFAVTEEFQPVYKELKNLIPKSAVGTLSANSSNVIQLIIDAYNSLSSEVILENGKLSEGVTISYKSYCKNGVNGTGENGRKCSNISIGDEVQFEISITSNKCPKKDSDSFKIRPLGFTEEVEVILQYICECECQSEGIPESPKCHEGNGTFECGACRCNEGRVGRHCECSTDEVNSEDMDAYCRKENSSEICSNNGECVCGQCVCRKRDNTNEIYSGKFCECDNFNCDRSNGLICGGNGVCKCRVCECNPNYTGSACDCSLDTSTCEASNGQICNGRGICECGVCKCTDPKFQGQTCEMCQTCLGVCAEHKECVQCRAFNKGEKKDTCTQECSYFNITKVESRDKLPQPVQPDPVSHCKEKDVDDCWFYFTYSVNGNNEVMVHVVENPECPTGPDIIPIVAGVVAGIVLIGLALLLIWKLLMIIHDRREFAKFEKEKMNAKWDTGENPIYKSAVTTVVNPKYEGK
Sequence (P13612 whole entry): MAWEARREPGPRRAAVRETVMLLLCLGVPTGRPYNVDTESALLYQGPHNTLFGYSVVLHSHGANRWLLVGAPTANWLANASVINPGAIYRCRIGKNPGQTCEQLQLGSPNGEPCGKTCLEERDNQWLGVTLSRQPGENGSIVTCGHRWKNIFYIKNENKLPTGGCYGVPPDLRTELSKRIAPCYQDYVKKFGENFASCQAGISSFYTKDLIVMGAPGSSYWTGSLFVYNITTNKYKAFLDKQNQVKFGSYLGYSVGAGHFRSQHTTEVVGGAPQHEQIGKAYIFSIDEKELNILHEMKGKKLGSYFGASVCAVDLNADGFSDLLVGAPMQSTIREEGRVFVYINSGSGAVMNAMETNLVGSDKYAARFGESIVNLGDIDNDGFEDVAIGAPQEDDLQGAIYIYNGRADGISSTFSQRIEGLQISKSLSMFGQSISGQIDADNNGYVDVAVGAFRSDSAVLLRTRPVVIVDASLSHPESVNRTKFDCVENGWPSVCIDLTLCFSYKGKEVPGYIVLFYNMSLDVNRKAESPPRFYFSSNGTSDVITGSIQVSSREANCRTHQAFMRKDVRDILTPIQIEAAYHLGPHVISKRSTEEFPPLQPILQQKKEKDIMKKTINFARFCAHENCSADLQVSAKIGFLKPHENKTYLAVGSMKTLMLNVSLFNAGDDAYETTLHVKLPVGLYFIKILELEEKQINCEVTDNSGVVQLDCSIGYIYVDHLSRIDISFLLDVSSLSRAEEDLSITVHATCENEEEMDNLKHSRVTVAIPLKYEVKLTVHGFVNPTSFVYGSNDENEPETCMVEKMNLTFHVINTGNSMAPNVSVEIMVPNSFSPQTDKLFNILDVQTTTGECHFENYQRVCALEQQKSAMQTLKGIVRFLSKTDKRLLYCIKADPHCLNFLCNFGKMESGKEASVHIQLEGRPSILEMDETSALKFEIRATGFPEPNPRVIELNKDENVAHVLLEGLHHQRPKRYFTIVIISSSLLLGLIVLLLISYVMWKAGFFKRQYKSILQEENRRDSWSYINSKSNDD
Experiment: Inhibition of [125I]VCAM-Ig binding to VLA-4 integrin of human Jurkat cells
Format: cell-based

entry-smiles	IC50, nM
CCCC[C@H](NC(=O)[C@@H]1Cc2ccccc2CN1S(=O)(=O)c1ccc(OC)c(OC)c1)C(=O)O	58

* * *

Molecular target: Integrin alpha-4/beta-1 (Homo sapiens, UniProt P05556+P13612)
Test: Inhibition of [125I]-VCAM-Ig binding to VLA-4 integrin of human Jurkat cells
Format: cell-based
pIC50: −log10 of the molar value.
quantity-name: pIC50

entry-smiles	meas-value
COc1ccc(S(=O)(=O)N2Cc3ccccc3C[C@H]2C(=O)N[C@@H](CCC(=O)O)C(=O)O)cc1OC	6.59

* * *

Test: Plasma clearance in Beagle dogs
Type: ADME, organism-based, Canis lupus familiaris
Conditions: dog, read-out: Clp
quantity-name: clearance (mL/min/kg)

entry-smiles	quantity-name	meas-value
C[C@@]1(C(=O)N[C@@H](Cc2ccc(-c3ccccc3C#N)cc2)C(=O)O)CCCN1S(=O)(=O)c1cc(Cl)cc(Cl)c1	clearance	25

* * *

Assay: Plasma half-life in rhesus monkey
Conditions: cercopithecidae
quantity-name: half-life (h)

entry-smiles	unit-label	meas-value
C[C@@]1(C(=O)N[C@@H](Cc2ccc(-c3ccccc3C#N)cc2)C(=O)O)CCCN1S(=O)(=O)c1cc(Cl)cc(Cl)c1	h	5.3

* * *

Biological target: Integrin alpha-4/beta-1 (Homo sapiens, UniProt P05556+P13612)
Assay: Antagonistic activity against VLA-4 integrin of human jurkat cells using [125I]VCAM-Ig as radioligand
Type: functional, cell-based
Parameter: IC50. Scope: all listed entries.
quantity-name: IC50 (nM)

entry-smiles	meas-value
COC(=O)c1ccccc1-c1ccc(C[C@H](NC(=O)[C@@H]2CCCN2S(=O)(=O)c2cc(Cl)cc(Cl)c2)C(=O)O)cc1	0.15
COC(=O)c1cccc(-c2ccc(C[C@H](NC(=O)[C@@H]3CCCN3S(=O)(=O)c3cc(Cl)cc(Cl)c3)C(=O)O)cc2)c1	0.4
C[C@@]1(C(=O)N[C@@H](Cc2ccc(-c3ccccc3S(C)(=O)=O)cc2)C(=O)O)CCCN1S(=O)(=O)c1cc(Cl)cc(Cl)c1	0.16
N#Cc1ccccc1-c1ccc(C[C@H](NC(=O)[C@@H]2CCCN2S(=O)(=O)c2cc(Cl)cc(Cl)c2)C(=O)O)cc1	0.46
C[C@@]1(C(=O)N[C@@H](Cc2ccc(-c3cccnc3)cc2)C(=O)O)CCCN1S(=O)(=O)c1cc(Cl)cc(Cl)c1	0.35
NC(=O)c1ccccc1-c1ccc(C[C@H](NC(=O)[C@@H]2CCCN2S(=O)(=O)c2cc(Cl)cc(Cl)c2)C(=O)O)cc1	0.09
C[C@@]1(C(=O)N[C@@H](Cc2ccc(-c3ccccc3F)cc2)C(=O)O)CCCN1S(=O)(=O)c1cc(Cl)cc(Cl)c1	2.4
CN(C)C(=O)c1ccccc1-c1ccc(C[C@H](NC(=O)[C@@H]2CCCN2S(=O)(=O)c2cc(Cl)cc(Cl)c2)C(=O)O)cc1	0.13
COc1ccccc1-c1ccc(C[C@H](NC(=O)[C@@H]2CCCN2S(=O)(=O)c2cc(Cl)cc(Cl)c2)C(=O)O)cc1	0.64
C[C@@]1(C(=O)N[C@@H](Cc2ccc(-c3cccc(C#N)c3)cc2)C(=O)O)CCCN1S(=O)(=O)c1cc(Cl)cc(Cl)c1	1.12
C[C@@]1(C(=O)N[C@@H](Cc2ccc(-c3cccc4cc[nH]c34)cc2)C(=O)O)CCCN1S(=O)(=O)c1cc(Cl)cc(Cl)c1	1.33
C[C@@]1(C(=O)N[C@@H](Cc2ccc(-c3ccccc3C(N)=O)cc2)C(=O)O)CCCN1S(=O)(=O)c1cc(Cl)cc(Cl)c1	0.14
C[C@@]1(C(=O)N[C@@H](Cc2ccc(-c3ccccc3Cl)cc2)C(=O)O)CCCN1S(=O)(=O)c1cc(Cl)cc(Cl)c1	192
COc1ccccc1-c1ccc(C[C@H](NC(=O)[C@]2(C)CCCN2S(=O)(=O)c2cc(Cl)cc(Cl)c2)C(=O)O)cc1	0.52

* * *

Test: Compound was tested for protein binding in rat plasma
Assay type: ADME, organism-based
Conditions: read-out: Protein binding (converted)
quantity-name: fraction unbound

entry-smiles	meas-value
C[C@@]1(C(=O)N[C@@H](Cc2ccc(-c3ccccc3C#N)cc2)C(=O)O)CCCN1S(=O)(=O)c1cc(Cl)cc(Cl)c1	0.005

* * *

Test: Oral bioavailability in rat (Sprague-Dawley) (dose 1 mg/kg i.v.)
Assay type: ADME, organism-based
Conditions: in vivo

entry-smiles	bioavailability, %
N#Cc1ccccc1-c1ccc(C[C@H](NC(=O)[C@@H]2CCCN2S(=O)(=O)c2cc(Cl)cc(Cl)c2)C(=O)O)cc1	4
COc1ccccc1-c1ccc(C[C@H](NC(=O)[C@@H]2CCCN2S(=O)(=O)c2cc(Cl)cc(Cl)c2)C(=O)O)cc1	3
